# system name: UniProtKB P30613
# Sequence (P30613 whole entry): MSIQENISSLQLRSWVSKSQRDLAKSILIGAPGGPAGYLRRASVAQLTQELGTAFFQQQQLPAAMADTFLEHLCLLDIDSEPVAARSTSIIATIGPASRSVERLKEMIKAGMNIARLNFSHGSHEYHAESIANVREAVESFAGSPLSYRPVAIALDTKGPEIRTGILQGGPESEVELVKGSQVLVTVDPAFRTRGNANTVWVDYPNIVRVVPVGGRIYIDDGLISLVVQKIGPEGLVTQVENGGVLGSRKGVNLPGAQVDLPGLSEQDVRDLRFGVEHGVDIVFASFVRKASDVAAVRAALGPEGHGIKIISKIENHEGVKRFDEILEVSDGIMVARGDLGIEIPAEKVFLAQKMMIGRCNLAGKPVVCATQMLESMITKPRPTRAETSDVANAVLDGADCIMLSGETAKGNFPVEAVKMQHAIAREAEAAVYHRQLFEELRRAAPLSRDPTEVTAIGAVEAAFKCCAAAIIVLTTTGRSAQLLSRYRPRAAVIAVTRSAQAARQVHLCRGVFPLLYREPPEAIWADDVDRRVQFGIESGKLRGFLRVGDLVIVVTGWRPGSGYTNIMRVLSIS
# protocol text: PKR WT cell based AC50 assay
# assay setup: wild type PKR
measured metric: AC50

Cc1cc(F)ccc1C1(O)CCN(C(=O)c2ccc(NS(=O)(=O)c3cccc4cccnc34)cc2)CC1; < 100 nM
O=C(c1ccc(NS(=O)(=O)c2cccc3cccnc23)cc1F)N1CCC(O)(c2ccccc2Cl)CC1; < 100 nM
O=C(c1ccc(NS(=O)(=O)c2cccc3cccnc23)cc1)N1CCC(O)(Cc2cccnc2)CC1; 101 to 1000 nM
CC(C)CC1(O)CCN(C(=O)c2ccc(NS(=O)(=O)c3cccc(O)c3N)cc2)CC1; < 100 nM
O=C(c1ccc(NS(=O)(=O)c2cccc3cccnc23)cc1)N1CCC(O)(C2CC2)CC1; 1010 to 10000 nM

Q. Could you share which AC50 value was measured for Nc1nc2c(S(=O)(=O)Nc3ccc(C(=O)N4CCC(O)(CCC(F)(F)F)CC4)cc3)cccc2s1 ?
A. 101 to 1000 nM

Q. Try the molecule O=C(c1ccc(NS(=O)(=O)c2cccc3cccnc23)cc1)N1CCC(O)(c2cccc(F)c2F)CC1
A. < 100 nM

Q. Try the molecule Cn1cc(CC2(O)CCN(C(=O)c3ccc(NS(=O)(=O)c4cccc5scnc45)cc3)CC2)cn1
A. 101 to 1000 nM

Q. Try the molecule CCOC(=O)C1(CC(C)C)CCN(C(=O)c2ccc(NS(=O)(=O)c3cccc4cccnc34)cc2)CC1
A. 1010 to 10000 nM

Q. Try the molecule O=C(c1ccc(NS(=O)(=O)c2cccc3cccnc23)cc1)N1CCC(O)(Cc2c(F)cccc2F)CC1
A. < 100 nM

Q. Try the molecule Cc1cc(C(=O)N2CCC(O)(c3ccccc3Cl)CC2)ccc1NS(=O)(=O)c1cccc2cccnc12
A. < 100 nM

Q. Try the molecule CC(C)(C)CC1(O)CCN(C(=O)c2ccc(NS(=O)(=O)c3cccc4scnc34)cc2)CC1
A. < 100 nM

Q. Try the molecule Cc1cc(C(=O)N2CCC(O)(c3cccc(F)c3F)CC2)ccc1NS(=O)(=O)c1ccc(F)c2cccnc12
A. 1010 to 10000 nM

Q. Try the molecule O=C(c1ccc(NS(=O)(=O)c2cccc3scnc23)cc1)N1CCC(O)(CCCC(F)F)CC1
A. < 100 nM

Q. Try the molecule O=C(c1ccc(NS(=O)(=O)c2cccc3cccnc23)cc1)N1CCC(O)(c2cnsc2)CC1 [Compound 377]
A. < 100 nM
